# TARGET_UNDER_TEST: Neutrophil elastase (Homo sapiens)
# METHOD_SUMMARY: Inhibition of human neutrophil elastase after 15 mins
If the reported kinact/Ki (second-order inactivation rate constant) equals or exceeds 400 M⁻¹ s⁻¹, assign true. If not, assign false.

Use the examples below as a reference point.
[[record]]
given_smiles = "CSCC[C@H](NC(=O)OCc1ccccc1)C(=O)O[C@H](C(=O)N[C@H](C(C)C)P(=O)(Oc1ccc(SC)cc1)Oc1ccc(SC)cc1)c1ccc([N+](=O)[O-])cc1"
target_under_test = "Neutrophil elastase (Homo sapiens)"
classification = "true"

[[record]]
given_smiles = "CSCC[C@H](NC(=O)OCc1ccccc1)C(=O)O[C@@H](CC(C)C)C(=O)N[C@H](C(C)C)P(=O)(Oc1ccc(SC)cc1)Oc1ccc(SC)cc1"
target_under_test = "Neutrophil elastase (Homo sapiens)"
classification = "true"

[[record]]
given_smiles = "CSCC[C@H](NC(=O)OCc1ccccc1)C(=O)O[C@H](C(=O)N[C@H](C(C)C)P(=O)(Oc1ccc(Cl)cc1)Oc1ccc(Cl)cc1)c1ccc([N+](=O)[O-])cc1"
target_under_test = "Neutrophil elastase (Homo sapiens)"
classification = "false"

[[record]]
given_smiles = "CCCCCC(=O)N1CCN([C@H](C(=O)N[C@H](C(C)C)P(=O)(Oc2ccc(SC)cc2)Oc2ccc(SC)cc2)c2ccc(OC)c(OC)c2)CC1"
target_under_test = "Neutrophil elastase (Homo sapiens)"
classification = "false"

[[record]]
given_smiles = "CSCC[C@H](NC(=O)OCc1ccccc1)C(=O)O[C@@H](CCSC)C(=O)N[C@H](C(C)C)P(=O)(Oc1ccc(Cl)cc1)Oc1ccc(Cl)cc1"
target_under_test = "Neutrophil elastase (Homo sapiens)"
classification = "true"


--- query ---
Please tell me: is the molecule CSCC[C@H](NC(=O)OCc1ccccc1)C(=O)O[C@H](C(=O)N[C@H](C(C)C)P(=O)(Oc1ccc(Cl)cc1)Oc1ccc(Cl)cc1)C(C)C at or over 400 M⁻¹ s⁻¹ in terms of kinact/Ki (second-order inactivation rate constant)?
true

###

# METHOD_SUMMARY: Inhibition of chymotrypsin at 2.5 uM after 30 mins relative to control
Activity calls are given as the source filed them. The calls are words filed in the database; no cut-off is given here.
ENDPOINT_LABEL: inhibition

Solved cases (5 shown):
[[record]]
given_smiles = "CSCC[C@H](NC(=O)OCc1ccccc1)C(=O)O[C@H](C(=O)N[C@H](C(C)C)P(=O)(Oc1ccc(Cl)cc1)Oc1ccc(Cl)cc1)C(C)C"
readout_value = "15%"

[[record]]
given_smiles = "CSCC[C@H](NC(=O)OCc1ccccc1)C(=O)O[C@@H](Cc1ccccc1)C(=O)N[C@H](C(C)C)P(=O)(Oc1ccc(Cl)cc1)Oc1ccc(Cl)cc1"
readout_value = "inactive"

[[record]]
given_smiles = "CCCCN(C(=O)CNC(=O)OCc1ccccc1)[C@@H](CCc1ccccc1)C(=O)N[C@H](C(C)C)P(=O)(Oc1ccc(SC)cc1)Oc1ccc(SC)cc1"
readout_value = "15%"

[[record]]
given_smiles = "CSCC[C@H](NC(=O)OCc1ccccc1)C(=O)O[C@H](C(=O)N[C@H](C(C)C)P(=O)(Oc1ccc(Cl)cc1)Oc1ccc(Cl)cc1)c1ccc(F)cc1"
readout_value = "16%"

[[record]]
given_smiles = "CCCCCC(=O)N1CCN([C@H](C(=O)N[C@H](C(C)C)P(=O)(Oc2ccc(SC)cc2)Oc2ccc(SC)cc2)c2ccc(OC)c(OC)c2)CC1"
readout_value = "inactive"


Now let's try a different one.
Request the reported inhibition associated with COc1ccc([C@H](OC(=O)[C@H](CCSC)NC(=O)OCc2ccccc2)C(=O)N[C@H](C(C)C)P(=O)(Oc2ccc(SC)cc2)Oc2ccc(SC)cc2)cc1OC
22%
